test system: human breast carcinoma cell line (MCF-7); experiment: MTT anti-proliferative assay, MCF-7; type: cell-based; settings: MCF7, MCF-7, MTT, mean ± SD of three independent experiments, read-out: Growth inhibition, GI50
assay-metric: GI50 (µM)

>>> result_value("Nc1nnc(SCC(=O)Nc2nc(-c3ccc([N+](=O)[O-])cc3)cs2)s1 [8f]")
3.71
>>> result_value("O=C(CCl)Nc1nc(-c2ccc(F)cc2)cs1 [4g]")
36.7
>>> result_value("Cc1ccc(-c2csc(NC(=O)CSc3nnc(N)s3)n2)cc1 [8e]")
28
>>> result_value("Nc1nnc(SCC(=O)Nc2nc(-c3ccc(Br)cc3)cs2)s1 [8b]")
4.07
>>> result_value("COc1ccc(-c2csc(NC(=O)CSc3nnc(N)s3)n2)cc1 [8d]")
2.98
>>> result_value("Nc1nnc(SCC(=O)Nc2nc(-c3ccc(Cl)cc3)cs2)s1 [8c]")
20.7
>>> result_value("Cc1ccc(-c2csc(NC(=O)CCl)n2)cc1 [4e]")
31.8
>>> result_value("CCOC(=O)c1sc(NC(=O)CCl)nc1C [4l]")
37.3
>>> result_value("O=C(CCl)Nc1nc(-c2cccc([N+](=O)[O-])c2)cs1 [4h]")
38.1
>>> result_value("O=C(CCl)Nc1nc(-c2ccccc2)cs1 [4a]")
23.8
>>> result_value("O=C(CCl)Nc1nc(-c2ccc(Cl)cc2)cs1 [4c]")
2.63
>>> result_value("COc1ccc(-c2csc(NC(=O)CCl)n2)cc1 [4d]")
26.5
>>> result_value("Nc1nnc(SCC(=O)Nc2nc(-c3ccccc3)cs2)s1 [8a]")
34.9
>>> result_value("O=C(CCl)Nc1nc(-c2ccc([N+](=O)[O-])cc2)cs1 [4f]")
29.4
>>> result_value("COc1cccc2c1C(=O)c1c(O)c3c(c(O)c1C2=O)C[C@@](O)(C(=O)CO)C[C@@H]3O[C@H]1C[C@H](N)[C@H](O)[C@H](C)O1 [doxorubicin, reference compound]")
4.15
>>> result_value("O=C(CCl)Nc1nc(-c2cc3ccccc3oc2=O)cs1 [4k]")
26.4
>>> result_value("COc1cccc(-c2csc(NC(=O)CCl)n2)c1 [4j]")
1.82
>>> result_value("O=C(CCl)Nc1nc(-c2cccc(Br)c2)cs1 [4i]")
33.7

###

System: pseudo-normal human embryonic liver cell line (L02)
Assay: MTT assay, pseudo-normal L02 cells
Type: cell-based
Conditions: L02, 100 µM, mean ± SD of three independent experiments
Source text: Methods for in vitro anti-proliferative assay [Cell lines]: In the current investigation, hepatocellular carcinoma cell lines (HEPG-2), human lung carcinoma (A549) and human breast carcinoma cell line (MCF-7) and pseudo-normal human embryonic liver cellline (L02) were used for antiproliferative activity, the cell lines were obtained from NCL, Pune. […]
Note to self: values exactly at 20% are fulfilled. So inhibition at 100 µM at or above 20% is fulfilled, below is not fulfilled.

>>> label_value("Nc1nnc(SCC(=O)Nc2nc(-c3ccc([N+](=O)[O-])cc3)cs2)s1")
"fulfilled"
>>> label_value("Cc1ccc(-c2csc(NC(=O)CCl)n2)cc1")
"not fulfilled"
>>> label_value("Nc1nnc(SCC(=O)Nc2nc(-c3ccc(Cl)cc3)cs2)s1")
"not fulfilled"
>>> label_value("O=C(CCl)Nc1nc(-c2cccc(Br)c2)cs1")
"not fulfilled"
>>> label_value("COc1cccc2c1C(=O)c1c(O)c3c(c(O)c1C2=O)C[C@@](O)(C(=O)CO)C[C@@H]3O[C@H]1C[C@H](N)[C@H](O)[C@H](C)O1 [doxorubicin, reference compound]")
"fulfilled"
>>> label_value("O=C(CCl)Nc1nc(-c2cccc([N+](=O)[O-])c2)cs1")
"not fulfilled"
>>> label_value("COc1cccc(-c2csc(NC(=O)CCl)n2)c1")
"not fulfilled"

###

Tested on: pseudo-normal human embryonic liver cell line (L02)
Assay: MTT assay, pseudo-normal L02 cells
Format: cell-based
Details: L02, 100 µM, mean ± SD of three independent experiments
Description: Methods for in vitro anti-proliferative assay [Cell lines]: In the current investigation, hepatocellular carcinoma cell lines (HEPG-2), human lung carcinoma (A549) and human breast carcinoma cell line (MCF-7) and pseudo-normal human embryonic liver cellline (L02) were used for antiproliferative activity, the cell lines were obtained from NCL, Pune. […]
Recorded measurements of inhibition at 100 µM, one per entry
assay-metric: inhibition at 100 µM (%)

>>> result_value("COc1ccc(-c2csc(NC(=O)CCl)n2)cc1 [4d]")
12.8
>>> result_value("CCOC(=O)c1sc(NC(=O)CCl)nc1C [4l]")
26
>>> result_value("Cc1ccc(-c2csc(NC(=O)CSc3nnc(N)s3)n2)cc1 [8e]")
23.8
>>> result_value("O=C(CCl)Nc1nc(-c2ccc([N+](=O)[O-])cc2)cs1 [4f]")
28.2
>>> result_value("O=C(CCl)Nc1nc(-c2ccc(Br)cc2)cs1 [4b]")
17.8
>>> result_value("O=C(CCl)Nc1nc(-c2cc3ccccc3oc2=O)cs1 [4k]")
23
